The entries that follow carry IC50 values tested on Insulin-like growth factor 1 receptor (Homo sapiens, UniProt P08069), drawn from several published reports.
measured_metric: IC50 (nM)

INSERT INTO measurements (structure_notation, value_comparator, recorded_measurement) VALUES
  ('COc1cc2nc(-c3ccc(C(F)(F)F)cc3)cc(OCCCNC3CCN(C)CC3)c2cc1OC', '=', 197),
  ('COc1cc2nc(-c3ccc(C(F)(F)F)cc3)cc(OCCCNC3CCCCC3)c2cc1OC', '=', 1480),
  ('O=C1CCCc2cc(-c3ccnc(Nc4ccccc4)n3)ccc2N1', '>', 100000),
  ('Cc1cc2c(cc1C)[n+](Cc1ccccc1Br)cn2Cc1ccc2c(c1)CCO2.[Br-]', '>', 500000);
